Measured IC50, blocking PDGF-BB (250 pM) activation, SRE-luciferase of individual entries
target: full length human PDGFR-beta on HEK293 cells (human, UniProt P09619 33-1106); experiment: cell-based or functional assay
Sequence (P09619 33-1106 limits assumed): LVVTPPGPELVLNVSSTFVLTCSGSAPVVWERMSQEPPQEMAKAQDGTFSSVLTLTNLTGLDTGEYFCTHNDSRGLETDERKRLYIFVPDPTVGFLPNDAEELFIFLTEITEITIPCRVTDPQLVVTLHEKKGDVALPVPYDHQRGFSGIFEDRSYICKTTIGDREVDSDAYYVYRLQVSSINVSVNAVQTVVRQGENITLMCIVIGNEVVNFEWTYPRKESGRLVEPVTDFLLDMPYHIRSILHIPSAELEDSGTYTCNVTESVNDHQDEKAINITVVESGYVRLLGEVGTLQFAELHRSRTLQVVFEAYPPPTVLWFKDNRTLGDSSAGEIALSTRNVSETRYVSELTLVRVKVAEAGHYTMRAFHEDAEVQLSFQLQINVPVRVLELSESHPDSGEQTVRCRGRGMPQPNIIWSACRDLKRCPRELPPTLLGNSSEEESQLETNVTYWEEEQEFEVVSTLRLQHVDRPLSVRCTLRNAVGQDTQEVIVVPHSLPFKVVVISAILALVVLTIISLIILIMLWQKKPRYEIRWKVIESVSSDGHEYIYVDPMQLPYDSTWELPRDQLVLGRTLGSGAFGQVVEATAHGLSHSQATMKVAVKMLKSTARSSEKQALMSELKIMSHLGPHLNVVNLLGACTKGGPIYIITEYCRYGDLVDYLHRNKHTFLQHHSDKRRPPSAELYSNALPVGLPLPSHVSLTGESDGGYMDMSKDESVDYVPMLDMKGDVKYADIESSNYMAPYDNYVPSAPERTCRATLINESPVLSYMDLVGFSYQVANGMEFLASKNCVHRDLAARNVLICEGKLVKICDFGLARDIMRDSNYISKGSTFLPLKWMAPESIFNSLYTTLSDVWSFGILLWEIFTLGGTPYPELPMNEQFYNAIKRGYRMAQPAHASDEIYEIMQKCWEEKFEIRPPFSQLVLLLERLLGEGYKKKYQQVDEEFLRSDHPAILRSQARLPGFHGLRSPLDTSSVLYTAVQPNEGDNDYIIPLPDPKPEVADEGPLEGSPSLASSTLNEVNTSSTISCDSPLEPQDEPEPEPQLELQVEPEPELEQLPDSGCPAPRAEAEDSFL
The response must be a number in M with no trailing unit.

Sample answers from the record:
| binder | reported-result |
| --- | --- |
| H4H3094P (antibody, human IgG4, V domains shown, also called H4H3394P) VH: EVQLVESGGGLVQPGGSLRLSCAASGFTFSSYWMSWVRQAPGKGLEWVANMNQDGSETHYVDSVKGRLSISRDNAKKSLFLHMNSLRAEDTAVYFCARDLVPPRQDDYYYYFGMDVWGHGTTVTVSS VL: DIQMTQSPSTLSASVGDRVTITCRASQSISDWLAWYQQKPGKAPKLLIFKASTLESGVPSRFSGSGSGTEFTLTISSLQPDDFATYYCQQYNSYSRTFGQGTKVEIK | 4e-10 |
| H2M3368N (antibody, V domains shown, mouse Fc (H2M prefix; isotype not spelled out)) VH: QVQLQQWGAGLLKPSETLSLTCAVYGGSFSGYYWTWIRQSPGKGLEWMGEISHRGTTNYNPSLKSRLTISLDTSNNHFSLKLSSVTAADTAVYYCAREERLGMGYDYFGLDVWGQGTTVTVSS VL: EIVLTQSPATLSLSPGERATLSCRASQSVSTYLTWYQQKPGQAPRLLIYDASNRATGIPARFSGSGSGTDFTLTISSLEPEDCAVYYCQQRSIWITFGQGTRLEIK | 1.8e-10 |

Here is the next item to consider.
Entry under test: H4H3096S (antibody, human IgG4, V domains shown, human IgG4 Fc (H4H prefix)) VH: EVQLVQSGGSLVQPGGSLRLSCTASGFTFSSYWMSWVRQAPGKGLEWVANIQQDESEKYYVDSVKGRFSISRDNAKKSLYLQMNSLRAEDTAVYFCARDLVPPRQGDYYHYFGMDVWGQGTLVTVSS VL: AIRMTQSPSTLSASVGDRVTITCRASQSISDWLAWYQQKPGKAPNLLIYKASSLESGVPSRFSGSGSGTEFTLTISGLQPDDFATYYCQQYNSYSRTFGQGTKLEIKR . Its IC50, blocking PDGF-BB (250 pM) activation, SRE-luciferase was 4.5e-10
